Tested on: prostacyclin receptor (CNS) in the thalamus ([^3 H] isocarbacyclin receptor)
experiment_summary: Displacement test relative to tritium-labelled isocarbacyclin, thalamus (CNS), autoradiography of frozen brain sections
Format: binding, rat
stated_conditions: thalamus (CNS); un-labelled compound 10^-7 M; 10 nM [^3 H]isocarbacyclin; 4° C., 2 h, pH 7.4; 0.1 µM
Label y when Binding ratio to [^3 H] isocarbacyclin receptor < 60%; otherwise n.

Is Binding ratio to [^3 H] isocarbacyclin receptor strictly under 60% for the entry Cc1cccc(CCC[C@@H](O)/C=C/[C@@H]2[C@H]3CC(CCCCC(=O)O)=C[C@H]3C[C@H]2O)c1 ? n

Is Binding ratio to [^3 H] isocarbacyclin receptor strictly under 60% for the entry Cc1cccc(CCC[C@H](O)/C=C/[C@@H]2[C@H]3CC(CCCCC(=O)O)=C[C@H]3C[C@H]2O)c1 ? n

Is Binding ratio to [^3 H] isocarbacyclin receptor strictly under 60% for the entry CCCCC[C@H](O)/C=C/[C@@H]1[C@H]2CC(CCCCC(=O)O)=C[C@H]2C[C@H]1O ? n

Is Binding ratio to [^3 H] isocarbacyclin receptor strictly under 60% for the entry Cc1cccc(C[C@H](O)/C=C/[C@@H]2[C@H]3CC(CCCCC(=O)O)=C[C@H]3C[C@H]2O)c1 ? y

Is Binding ratio to [^3 H] isocarbacyclin receptor strictly under 60% for the entry Cc1cccc(C[C@@H](O)/C=C/[C@@H]2[C@H]3CC(CCCCC(=O)O)=C[C@H]3C[C@H]2O)c1 ? y
